SYSTEM TESTED: hCA IX (Homo sapiens)
PROCEDURE DETAILS: biochemical
SETTINGS: IC50 (μM) ± SEM CA IX, CA IX; ± SEM
OUTCOME MEASURE: IC50 (µM)

Some entries whose results are on file:
Cc1ccc(S(=O)(=O)Nc2ccc(C)c(C)c2)cc1 [Compound 3j] ... 0.62
Cc1ccc(S(=O)(=O)Nc2c(C)cccc2C)cc1 [Compound 3c] ... 1.06
Cc1ccc(S(=O)(=O)NC(c2ccccc2)c2ccccc2)cc1 [Compound 3g, N-Benzhydryl-4-methylbenzenesulfonamide] ... 0.78
Cc1ccc(S(=O)(=O)Nc2cc(C)ccc2C)cc1 [Compound 3b] ... 1.65

A: Cc1ccc(S(=O)(=O)Nc2ccccc2)cc1 [Compound 3a, 4-Methyl-N-phenylbenzenesulfonamide]
B: COc1ccc(CCNS(=O)(=O)c2ccc(C)cc2)cc1OC [Compound 3l]
C: Cc1ccc(S(=O)(=O)NCc2ccccc2)cc1 [Compound 3f, N-benzyl-4-methylbenzenesulfonamide]
D: Cc1ccc(S(=O)(=O)NNc2ccccc2)cc1 [Compound 3h]
Ordering: ascending IC50. Field: ranking. Enter the labels in the order requested.
D, B, A, C
